Measured folding stability dG, listed per entry for reference.
B1: 2K2A (parent)
chain: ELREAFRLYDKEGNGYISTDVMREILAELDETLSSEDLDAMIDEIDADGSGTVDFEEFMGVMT

Variants of: B1
Assay: folding stability dG (cDNA display proteolysis); higher = more stable
Conditions: PBS, room temperature
# output: number + unit

In the examples that follow, each entry is paired with its recorded folding stability dG.
[
  {
    "variantCode": "M59A",
    "recordedEndpoint": "folding stability dG",
    "valueObserved": "8.56 kJ/mol"
  },
  {
    "variantCode": "D43P",
    "recordedEndpoint": "folding stability dG",
    "valueObserved": "2.33 kJ/mol"
  },
  {
    "variantCode": "T63V",
    "recordedEndpoint": "folding stability dG",
    "valueObserved": "7.61 kJ/mol"
  },
  {
    "variantCode": "T52F",
    "recordedEndpoint": "folding stability dG",
    "valueObserved": "6.41 kJ/mol"
  },
  {
    "variantCode": "S34V",
    "recordedEndpoint": "folding stability dG",
    "valueObserved": "4.28 kJ/mol"
  }
]

Qu. Please report the recorded folding stability dG for T63Q .
Ans. 7.64 kJ/mol

Qu. Then what about the variant M41W ?
Ans. 10.2 kJ/mol

Qu. Then what about the variant E57D ?
Ans. 7.18 kJ/mol

Qu. Then what about the variant F55R ?
Ans. 1.57 kJ/mol
